These data points were gathered from ChEMBL document CHEMBL4038329.

Assay: Agonist activity at LXR in human U937 cells assessed as upregulation of SREBP1c mRNA levels at 10 uM after 6 hrs by qPCR analysis
Type: cell-based
measurement label: Activity

As a guide, the following entries are already answered.
| compound | measurement label | observed result |
| --- | --- | --- |
| CC(C)CC[C@@H](O)[C@@H](C)[C@H]1CC[C@H]2[C@@H]3CC=C4C[C@@H](O)CC[C@]4(C)[C@H]3CC[C@]12C [22(R)-HYDROXYCHOLESTEROL] | Activity | Not Active |
| CC[C@H](C(=O)C[C@@H](C)[C@H]1CC[C@H]2[C@@H]3CC=C4C[C@@H](O)CC[C@]4(C)[C@H]3CC[C@]12C)C(C)C | Activity | Not Active |
| CC(C)[C@@H](C)CC(=O)[C@@H](C)[C@H]1CC[C@H]2C3=CC=C4C[C@@H](O)CC[C@]4(C)[C@H]3CC[C@]12C | Activity | Not Active |
| CC[C@@H](C(C)C)[C@@H](O)C[C@@H](C)[C@H]1CC[C@H]2[C@@H]3CC=C4C[C@@H](O)CC[C@]4(C)[C@H]3CC[C@]12C | Activity | Not Active |

Exercise: Look up Activity for this compound: CC[C@@H](C(C)C)[C@H]1O[C@@H]1[C@@H](C)[C@H]1CC[C@H]2[C@@H]3CC=C4C[C@@H](O)CC[C@]4(C)[C@H]3CC[C@]12C
Key: Not Active

---

Assay: Agonist activity at LXR in human HepG2 cells assessed as upregulation of SREBP1c mRNA levels at 10 uM after 6 hrs by qPCR analysis
Type: cell-based

| molecule | Activity |
| --- | --- |
| CC(C)[C@@H](C)[C@@H](O)C[C@@H](C)[C@H]1CC[C@H]2C3=CC=C4C[C@@H](O)CC[C@]4(C)[C@H]3CC[C@]12C | Not Active |
| CC(C)[C@@H](C)C[C@@H](O)[C@@H](C)[C@H]1CC[C@H]2C3=CC=C4C[C@@H](O)CC[C@]4(C)[C@H]3CC[C@]12C | Not Active |
| CC(C)CC[C@@H](O)[C@@H](C)[C@H]1CC[C@H]2[C@@H]3CC=C4C[C@@H](O)CC[C@]4(C)[C@H]3CC[C@]12C [22(R)-HYDROXYCHOLESTEROL] | Not Active |

---

Test: Agonist activity at LXR in human HepG2 cells assessed as upregulation of SCD1 mRNA levels at 10 uM after 6 hrs by qPCR analysis
Format: cell-based
measurement label: Activity

// worked examples, Activity included
| molecule | observed result |
| --- | --- |
| CC(C)[C@@H](C)C[C@@H](O)[C@@H](C)[C@H]1CC[C@H]2C3=CC=C4C[C@@H](O)CC[C@]4(C)[C@H]3CC[C@]12C | Not Active |
| CC(C)[C@@H](C)C[C@H](O)[C@@H](C)[C@H]1CC[C@H]2C3=CC=C4C[C@@H](O)CC[C@]4(C)[C@H]3CC[C@]12C | Not Active |
| CC(C)[C@@H](C)[C@@H](O)C[C@@H](C)[C@H]1CC[C@H]2C3=CC=C4C[C@@H](O)CC[C@]4(C)[C@H]3CC[C@]12C | Not Active |
| CC(C)[C@@H](C)CC(=O)[C@@H](C)[C@H]1CC[C@H]2C3=CC=C4C[C@@H](O)CC[C@]4(C)[C@H]3CC[C@]12C | Not Active |
| CC[C@@H](C(C)C)[C@@H](O)C[C@@H](C)[C@H]1CC[C@H]2[C@@H]3CC=C4C[C@@H](O)CC[C@]4(C)[C@H]3CC[C@]12C | Not Active |

Please supply Activity for each of the following items, keeping them in order.
1. CC[C@@H](C(C)C)[C@H](O)C[C@@H](C)[C@H]1CC[C@H]2[C@@H]3CC=C4C[C@@H](O)CC[C@]4(C)[C@H]3CC[C@]12C
2. CC(C)[C@@H](C)[C@@H]1O[C@H]1[C@@H](C)[C@H]1CC[C@H]2C3=CC=C4C[C@@H](O)CC[C@]4(C)[C@H]3CC[C@]12C
3. CC[C@H](C[C@H](O)[C@@H](C)[C@H]1CC[C@H]2[C@@H]3CC=C4C[C@@H](O)CC[C@]4(C)[C@H]3CC[C@]12C)C(C)C
4. CC(C)[C@@H](C)[C@H]1O[C@@H]1[C@@H](C)[C@H]1CC[C@H]2C3=CC=C4C[C@@H](O)CC[C@]4(C)[C@H]3CC[C@]12C
5. CC(C)[C@@H](C)C(=O)C[C@@H](C)[C@H]1CC[C@H]2C3=CC=C4C[C@@H](O)CC[C@]4(C)[C@H]3CC[C@]12C
6. CC[C@@H](C(C)C)[C@H]1O[C@@H]1[C@@H](C)[C@H]1CC[C@H]2[C@@H]3CC=C4C[C@@H](O)CC[C@]4(C)[C@H]3CC[C@]12C
7. O=S(=O)(c1ccccc1)N(CC(F)(F)F)c1ccc(C(O)(C(F)(F)F)C(F)(F)F)cc1 [T091317]

Key:
Not Active
Not Active
Not Active
Not Active
Not Active
Not Active
Not Active

Exercise: Please look up its Activity: CC[C@H](C[C@@H](O)[C@@H](C)[C@H]1CC[C@H]2[C@@H]3CC=C4C[C@@H](O)CC[C@]4(C)[C@H]3CC[C@]12C)C(C)C
Key: Not Active

---

Test: Agonist activity at LXR in human HepG2 cells assessed as upregulation of SCD1 mRNA levels at 10 uM after 6 hrs by qPCR analysis
Format: cell-based

| compound | Activity |
| --- | --- |
| CC[C@H](C(=O)C[C@@H](C)[C@H]1CC[C@H]2[C@@H]3CC=C4C[C@@H](O)CC[C@]4(C)[C@H]3CC[C@]12C)C(C)C | Not Active |
| CC(C)[C@@H](C)[C@H](O)C[C@@H](C)[C@H]1CC[C@H]2C3=CC=C4C[C@@H](O)CC[C@]4(C)[C@H]3CC[C@]12C | Not Active |
| CC[C@@H](C(C)C)[C@@H]1O[C@H]1[C@@H](C)[C@H]1CC[C@H]2[C@@H]3CC=C4C[C@@H](O)CC[C@]4(C)[C@H]3CC[C@]12C | Not Active |
| CC(C)CC[C@@H](O)[C@@H](C)[C@H]1CC[C@H]2[C@@H]3CC=C4C[C@@H](O)CC[C@]4(C)[C@H]3CC[C@]12C [22(R)-HYDROXYCHOLESTEROL] | Not Active |
